Values from paper PMC10397247

# EXPERIMENTAL_SYSTEM: T1, 4H730-bA
# T1 chain: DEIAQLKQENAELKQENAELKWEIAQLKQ
# METHOD: two-hybrid library CCNG1;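 further: natural log of median RNA to DNA barcode read ratio; higher means stronger binding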
Catalogue of interaction score readings, one per entry.
Quick one: just the number, no unit, thanks!

1) DKNAQLEQKIAELEQKIAELEWENAQLKQ [4H3364-bA] : 0.124
2) DKIAQLEQKNAELEQEIAELKWENAQLKQ [4H2444-bA] : -0.297
3) DKIAQLEQKNAELKQENAELEWKIAQLKQ [4H2518-bA] : -0.626
4) DEIAQLEQKIAELKQENAELKWKIAQLEQ [4H349-bA] : -0.854
5) DKIAQLKQKIAELKQKNAELEWENAQLEQ [4H2931-bA] : -1.14
6) DKIAQLEQENAELKQEIAELKWKIAQLEQ [4H2253-bA] : -0.707

// next entry
I have this binder here, DKNAQLEQKIAELEQKNAELEWKIAQLEQ [4H3381-bA] , and I need its recorded interaction score.
-1.47
